- System: Cytochrome P450 2C9 (Homo sapiens)
- Assay Info: Cytochrome P450 family 2 subfamily C member 9 (CYP2C9) small molecule antagonists: luciferase biochemical (cell-free) qHTS assay (AID 1645842); also: nearly all actives have a fitted effect of over 55% in size
- Condition Summary: P450-Glo CYP2C9 enzyme assay, luciferin luminescence; series mostly up to 57.4 µM
- From the text: National Center for Advancing Translational Sciences [NCATS] Assay Overview: Cytochrome P450 (CYP) enzymes are membrane-bound hemeproteins that play a key role in metabolism of drugs and xenobiotics. Assaying the effect of chemicals on CYP isozymes is useful to minimize the adverse drug reactions and toxicities in drug development process. […] The luciferin products formed are detected with a luciferin detection reagent, and the amount of light produced is proportional to CYP activity. […]
Results filed as inconclusive are left out. Calls of active or inactive are those of the source. Calls follow the shape of the dose curve; as a rule, active = well fitted inhibition curve with a large enough effect in the repeat runs; inconclusive = weak or mixed curves; inactive = no such curve, though single readings can be large or run the other way.
Hi there, use one of these labels in your reply, thanks! active, inactive

Check out these entries, answers already filled in.
{"Compound": "Cc1ccc([S+](=O)([O-])NC2CCC(C)(C)CC2)cc1", "Label Value": "active"}
{"Compound": "C[C@H]1[C@@H](OC(=O)CCC(=O)O)O[C@@H]2O[C@]3(C)CC[C@H]4[C@H](C)CC[C@@H]1[C@@]24OO3", "Label Value": "inactive"}
{"Compound": "Oc1c(C(c2ccc(Cl)cc2Cl)N2CCN(Cc3ccccc3)CC2)sc2nc(-c3ccco3)nn12 (centres undefined)", "Label Value": "active"}

Problem: Called result for "COc1cc(=O)n2c(c1C(=O)NCc1ccc3c(c1)OCO3)CCN(C(=O)c1ccc(C)cc1C)CC2"
Solution: active

Problem: Could you kindly confirm the outcome this assay logged for COc1ccccc1CNC(=O)C1CCCN(c2nc3ccccc3n3cccc23)C1 (centres undefined) ?
Solution: active

Problem: Lab log entry: "Cc1ccccc1C(=O)Nc1cccc(-c2nc3cccnc3s2)c1" — outcome as called in the assay?
Solution: active

Problem: Can you look up the reported call for "Cc1ccc2nc3c(cc(C#N)c(=O)n3-c3nnc(SCc4ccccc4)s3)c(=O)n2c1" for me?
Solution: active

Problem: What call does the record list for CCC(Sc1nc2nccnc2c(=O)n1Cc1ccc(C)cc1)C(=O)NC1CCCCC1 (centres undefined) ?
Solution: active

Problem: For "COc1ccc(NC(=O)CSc2nc3ccccc3n2Cc2cccc(OC)c2)cc1" , which call appears in the assay record?
Solution: active
